Reference for the values: patent US20240400545A1

Test: Pharmacokinetic study in rats (intragastrical administration)
Conditions: male, SD, rat, plasma, po, 3 mg/kg
assay.metric: AUC(0-t) (ng·h/mL)

Please review the entries below; each comes with its answer.
CC#Cc1ccc(S(=O)(=O)Nc2noc3cc(Cn4cccn4)cc(OC)c23)c(OC)c1	45300
COc1cc(C#CC2CC(F)(F)C2)cc(OC)c1S(=O)(=O)Nc1noc2cc(Cn3cccn3)cc(OC)c12	32500
COc1cc(C#CC2CC2)ccc1S(=O)(=O)Nc1noc2cc(Cn3cccn3)cc(OC)c12	82200

P = COc1cc(N2CCC2)ccc1S(=O)(=O)Nc1noc2cc(Cn3cccn3)cc(OC)c12
Q = COc1cc(C#CC2COC2)cc(OC)c1S(=O)(=O)Nc1noc2cc(Cn3cccn3)cc(OC)c12
Lookup: Form: Entry with minimum AUC(0-t) (choose one): P / Q Lab log: write the label of the selected item as the result.
Found: P
(P: 3120 ng·h/mL, Q: 5960 ng·h/mL)
